Every entry's value here was drawn from PubChem BioAssay (NCI).

System: SK-MEL-5 melanoma
Assay: NCI tumour cell line growth inhibition, 48 h
We begin with a simple list: items and their reported TGI.
assay_metric: TGI

compound	reading
C[n+]1ccccc1/C=C/c1ccc2c(c1)OCO2	> 10 µM
Cn1c2nc(=Nc3ccc(Cl)cc3)n3ccc4ccccc4c3c2c(=O)n1-c1ccccc1	> 100 µM
CO/N=C(\COc1ccc2c(=O)cc(-c3ccccc3)oc2c1)c1ccc(OC)cc1	> 100 µM
CC(C)c1cccc2sc(NC(=O)C(=O)CC(=O)c3ccc(F)cc3)nc12	> 100 µM
COC(=O)c1c(C)cccc1C1CN=NC12Cc1c(C)cccc1C2=O (centres undefined)	> 100 µM
C=CC1(C)/C(=N\O)C(C)(CC)C(=O)N1O (centres undefined)	> 100 µM
CCCNCC(O)/C=C/[Si](C)(C)C (centres undefined) (tested in a mixture with another compound)	> 100 µM
O=C1c2ccccc2C(=O)N1C/C=N/NS(=O)(=O)c1ccc(Cl)cc1	> 100 µM
CP(=O)(CCSc1ccccc1)c1ccccc1 (centres undefined)	> 100 µM
